Target: human PAR4 (Homo sapiens)
Sequence (Q96RI0 18-385): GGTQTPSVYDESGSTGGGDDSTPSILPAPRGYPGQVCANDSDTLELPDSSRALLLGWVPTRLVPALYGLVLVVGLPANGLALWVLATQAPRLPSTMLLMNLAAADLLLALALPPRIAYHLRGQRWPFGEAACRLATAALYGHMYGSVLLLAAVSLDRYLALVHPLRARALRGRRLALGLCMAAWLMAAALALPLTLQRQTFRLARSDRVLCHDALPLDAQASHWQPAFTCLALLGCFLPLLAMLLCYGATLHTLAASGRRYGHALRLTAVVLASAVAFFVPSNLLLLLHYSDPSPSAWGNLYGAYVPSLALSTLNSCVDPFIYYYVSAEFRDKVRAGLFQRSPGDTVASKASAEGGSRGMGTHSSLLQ
Assay: PAR4 FLIPR assay: antagonism of agonist-peptide-induced calcium mobilization in PAR4-expressing HEK293 cells
Settings: H-Ala-Phe(4-F)-[…]NH2-induced intracellular calcium mobilization, 11-point curves
Quantity measured: IC50 (nM)

P: COc1cnc2c(-c3nc4cc(F)c(O[C@@H](C)[C@@H](C)OC(=O)Nc5ccc(C#N)nc5)cc4s3)cc(C#N)cc2n1
Q: COc1cnc2c(-c3nc4c(C)cc(OCCNS(=O)(=O)c5ccc(C)cc5)nc4s3)cc(C)cc2n1
R: COCc1cnc2c(-c3nc4cc(O)c(OC)cc4s3)cc(C)cc2n1
## Input Put the items in order so that reported IC50 rises from first to last. Your answer should be the labels, listed in the requested order.
## Output P, Q, R
(P: 0.7 nM, Q: 1.4 nM, R: 9.1 nM)

a: COc1cnc2c(-c3nc4cc(F)c(O[C@@H](C)[C@@H](C)OC(=O)Nc5ccc(C(C)O)nc5)nc4s3)cc(C)cc2n1 (single isomer, unassigned) [Example 767]
b: COc1cnc2c(-c3nc4cc(F)c(OC[C@@H](C)OC(=O)Nc5ccnc(CCO)c5)cc4s3)cc(C)cc2n1
c: [2H]C(O)(c1cc(OC)cc2sc(-c3cc(C)cc4nc(COC)cnc34)nc12)C(C)(C)C (single isomer, unassigned)
d: CCOC(=O)COc1cc(C)c2nc(-c3cc(Cl)cc4nc(OC)cnc34)sc2c1
e: COc1cnc2c(-c3nc4c(C)cc(OCC(=O)O)cc4s3)cc(Cl)cc2n1
## Input Rank items: key IC50, increasing. Your answer should be the labels, listed in the requested order.
## Output c, b, a, e, d
(c: 0.4 nM, b: 1.5 nM, a: 3.4 nM, e: 17 nM, d: 31 nM)

* * *

Target: UniProt Q96RI0
Experiment: PAR4 FLIPR assay: antagonism of agonist-peptide-induced calcium mobilization in PAR4-expressing HEK293 cells
Settings: H-Ala-Phe(4-F)-[…]NH2-induced intracellular calcium mobilization, 11-point curves
pIC50: −log10 of the molar value.
Quantity measured: pIC50

A: COCc1cnc2c(-c3nc4c(C(O)C(C)(C)C)cc(OC)cc4s3)cc(C)cc2n1 (single isomer, unassigned) [Example 164]
B: COc1cnc2c(-c3nc4cc(F)c(O[C@@H](C)[C@@H](C)OC(=O)Nc5ccc(C)nc5)cc4s3)cc(Cl)cc2n1 [Example 822]
## Input Please indicate which entry, A or B , has the lower recorded pIC50 value. Kindly give the label for the entry you pick.
## Output B

P: COc1cc(C(F)C(C)(C)C)c2nc(-c3cc(C)cc4nc(OC)cnc34)sc2c1 (stereo not shown) [Example 634]
Q: CNC(=O)c1ncc(NC(=O)O[C@H](C)COc2cc3sc(-c4cc(C)cc5nc(OC)cnc45)nc3cc2F)cn1 [Example 430]
## Input Please indicate which entry, P or Q , has the lower recorded pIC50 value. Kindly give the label for the entry you pick.
## Output P
(P: 7.36, Q: 9.05)

I: CCc1cnc2c(-c3cc4ccccc4o3)cc(C)cc2n1 [Example 132]
II: COc1cncc(NC(=O)O[C@H](C)[C@H](C)Oc2cc3sc(-c4cc(Cl)cc5cc(OC)cnc45)nc3cc2F)c1 [Example 785]
## Input Please indicate which entry, I or II , has the lower recorded pIC50 value. Kindly give the label for the entry you pick.
## Output I
(I: 7.23, II: 8.46)
